# EXPERIMENT_DESCRIPTION: qHTS of pediatric cancer cell lines to identify multiple opportunities for drug repurposing: Primary screen for SJ-GBM2 cells (AID 1347091)
# CONDITION: SJ-GBM2 viability, CellTiter-Glo luminescence, 48 h; series mostly up to 46 µM
Results filed as inconclusive are left out. Active and inactive are the calls of the source. Calls come from the whole dose curve; as a rule, active = well fitted cell-killing curve with a large enough effect; inconclusive = small, poorly fitted or top-dose-only effect; inactive = no such curve, though single readings can be large or run the other way.
Outcomes: active, inactive

> print(dat)
                                    compound       cat
 1                   O=C1NS(=O)(=O)c2ccccc21  inactive
 2                         CC1(C)OC(=O)NC1=O  inactive
 3                       CCC(=O)Nc1ccc(O)cc1  inactive
 4  CC(C)(C)NCC(O)COc1ccc(NC(=O)NC2CCCCC2)cc1 (configuration not stated)  inactive
 5        CCCCN1CCCC[C@H]1C(=O)Nc1c(C)cccc1C  inactive
 6  Oc1ccc(C(O)CNCCCCCCNCC(O)c2ccc(O)c(O)c2)cc1O (configuration not stated)  inactive
 7  COc1ccc(Cl)cc1C(=O)NCCc1ccc(S(=O)(=O)NC(=O)NC2CCCCC2)cc1  inactive
 8  NC(CSCC(=O)O)C(=O)O (configuration not stated)  inactive
 9  CCOc1ccc2ccccc2c1C(=O)N[C@@H]1C(=O)N2[C@@H]1SC(C)(C)[C@@H]2C(=O)O  inactive
10                     CC12CCC(CC1)C(C)(C)O2  inactive
11  NC(=O)c1ncn([C@@H]2O[C@H](CO)[C@@H](O)[C@H]2O)n1  inactive
12  Cc1c(O)cccc1C(=O)N[C@@H](CSc1ccccc1)[C@H](O)CN1C[C@H]2CCCC[C@H]2C[C@H]1C(=O)NC(C)(C)C    active
13  C[C@@H]1CN(c2c(F)c(F)c3c(=O)c(C(=O)O)cn(C4CC4)c3c2F)C[C@H](C)N1  inactive
14        O=C(O)CN1C(=O)c2cccc3cccc(c23)C1=O  inactive
15  CN(N=O)C(=O)N[C@@H]1[C@@H](O)[C@H](O)[C@@H](CO)O[C@@H]1O  inactive
16  CNC(=O)Oc1ccc2c(c1)[C@]1(C)CCN(C)[C@@H]1N2C  inactive
17  CC1=C(CC(=O)O)c2cc(F)ccc2/C1=C\c1ccc(S(C)(=O)=O)cc1  inactive

---

# TEST_TARGET: Thyrotropin-releasing hormone receptor (Homo sapiens) (UniProt P34981)
# Sequence (P34981 whole entry, looked up): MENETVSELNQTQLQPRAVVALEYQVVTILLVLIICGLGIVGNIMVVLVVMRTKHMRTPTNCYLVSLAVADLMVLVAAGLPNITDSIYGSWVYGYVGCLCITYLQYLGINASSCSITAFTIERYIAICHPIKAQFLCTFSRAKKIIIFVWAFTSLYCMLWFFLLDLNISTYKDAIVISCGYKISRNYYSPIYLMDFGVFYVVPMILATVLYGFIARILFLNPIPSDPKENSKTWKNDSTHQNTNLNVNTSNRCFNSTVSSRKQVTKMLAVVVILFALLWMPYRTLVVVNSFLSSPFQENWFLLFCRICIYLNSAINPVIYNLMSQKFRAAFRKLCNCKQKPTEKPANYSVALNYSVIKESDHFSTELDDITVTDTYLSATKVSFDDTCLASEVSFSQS
# EXPERIMENT_DESCRIPTION: qHTS for Small Molecule Agonists and Allosteric Enhancers of Human TRH Receptor: Validation Screen for Agonists (AID 493127);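 note: intracellular calcium rise by fluo-8 fluorescence before TRH EC20 addition; 0% is about no effect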
# CONDITION: TRH receptor agonist cell assay; at 2 µM; stronger effect = higher value
Calls of active or inactive are those of the source.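 The calls were made as follows: active = calcium activation more than 3 SD above the typical response in the agonist read; inactive = the rest.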
Measured activation values are reported for all entries that follow.
QUANTITY_KIND: activation

> print(dat)
                                    molecule                               test.target  quantity.kind              value
 1  NC(=O)c1ncn([C@@H]2O[C@H](CO)[C@@H](O)[C@H]2O)n1  Thyrotropin-releasing hormone receptor (Homo sapiens) (UniProt P34981)     activation  0.875% (inactive)
 2                 N=c1c[n+](N2CCOCC2)[n-]o1  Thyrotropin-releasing hormone receptor (Homo sapiens) (UniProt P34981)     activation    0.5% (inactive)
 3          CCN(CC)CCNC(=O)c1cc(Cl)c(N)cc1OC  Thyrotropin-releasing hormone receptor (Homo sapiens) (UniProt P34981)     activation   1.31% (inactive)
 4  CC1=C(/C=C/C(C)=C/C=C/C(C)=C/C(=O)O)C(C)(C)CCC1  Thyrotropin-releasing hormone receptor (Homo sapiens) (UniProt P34981)     activation  0.375% (inactive)
 5             CN(C)CCCN1c2ccccc2CCc2ccccc21  Thyrotropin-releasing hormone receptor (Homo sapiens) (UniProt P34981)     activation   2.19% (inactive)
 6  CCN(CC)CCCC(C)Nc1c2ccc(Cl)cc2nc2ccc(OC)cc12 (stereo not given)  Thyrotropin-releasing hormone receptor (Homo sapiens) (UniProt P34981)     activation  -2.88% (inactive)
 7       CN(C)CC[C@@H](c1ccc(Cl)cc1)c1ccccn1  Thyrotropin-releasing hormone receptor (Homo sapiens) (UniProt P34981)     activation   1.56% (inactive)
 8  C[C@]12CC[C@@H]3c4ccc(O)cc4CC[C@H]3[C@@H]1CCC2=O  Thyrotropin-releasing hormone receptor (Homo sapiens) (UniProt P34981)     activation  0.812% (inactive)
 9  COc1ccc(Cl)cc1C(=O)NCCc1ccc(S(=O)(=O)NC(=O)NC2CCCCC2)cc1  Thyrotropin-releasing hormone receptor (Homo sapiens) (UniProt P34981)     activation      1% (inactive)
10  CC(CN1c2ccccc2Sc2ccccc21)N(C)C (stereo not given)  Thyrotropin-releasing hormone receptor (Homo sapiens) (UniProt P34981)     activation   3.12% (inactive)
11  C=Cc1c(C)c2cc3[nH]c(cc4nc(cc5nc(cc1[nH]2)C(C)=C5CCC(=O)O)C(CCC(=O)O)=C4C)c(C)c3C=C  Thyrotropin-releasing hormone receptor (Homo sapiens) (UniProt P34981)     activation  0.125% (inactive)
12  CC(C(O)c1ccc(O)cc1)N1CCC(Cc2ccccc2)CC1 (stereo not given)  Thyrotropin-releasing hormone receptor (Homo sapiens) (UniProt P34981)     activation   5.75% (inactive)
13  CSc1ccc2c(c1)C(N1CCN(C)CC1)Cc1ccccc1S2 (stereo not given)  Thyrotropin-releasing hormone receptor (Homo sapiens) (UniProt P34981)     activation   5.38% (inactive)
14  OCCN1CCN(CCCN2c3ccccc3Sc3ccc(Cl)cc32)CC1  Thyrotropin-releasing hormone receptor (Homo sapiens) (UniProt P34981)     activation   0.75% (inactive)
15               CNCCCC1c2ccccc2C=Cc2ccccc21  Thyrotropin-releasing hormone receptor (Homo sapiens) (UniProt P34981)     activation   7.31% (inactive)
16  C[C@H]1O[C@@H](n2cc(F)c(=O)[nH]c2=O)[C@H](O)[C@@H]1O  Thyrotropin-releasing hormone receptor (Homo sapiens) (UniProt P34981)     activation  0.688% (inactive)
17  CN1CCN(C2Cc3ccccc3Sc3ccc(Cl)cc32)CC1 (stereo not given)  Thyrotropin-releasing hormone receptor (Homo sapiens) (UniProt P34981)     activation   0.75% (inactive)
18                         C#CCN(C)Cc1ccccc1  Thyrotropin-releasing hormone receptor (Homo sapiens) (UniProt P34981)     activation  0.562% (inactive)
19  COC(=O)C1=C(C)NC(C)=C(C(=O)OC)C1c1ccccc1[N+](=O)[O-]  Thyrotropin-releasing hormone receptor (Homo sapiens) (UniProt P34981)     activation  0.938% (inactive)
20  Cc1cc(N)c2ccccc2[n+]1CCCCCCCCCC[n+]1c(C)cc(N)c2ccccc21  Thyrotropin-releasing hormone receptor (Homo sapiens) (UniProt P34981)     activation  0.812% (inactive)
